Value source: ChEMBL document CHEMBL1155351

Target: Voltage-gated inwardly rectifying potassium channel KCNH2 (Homo sapiens)
Sequence (Q12809 whole entry): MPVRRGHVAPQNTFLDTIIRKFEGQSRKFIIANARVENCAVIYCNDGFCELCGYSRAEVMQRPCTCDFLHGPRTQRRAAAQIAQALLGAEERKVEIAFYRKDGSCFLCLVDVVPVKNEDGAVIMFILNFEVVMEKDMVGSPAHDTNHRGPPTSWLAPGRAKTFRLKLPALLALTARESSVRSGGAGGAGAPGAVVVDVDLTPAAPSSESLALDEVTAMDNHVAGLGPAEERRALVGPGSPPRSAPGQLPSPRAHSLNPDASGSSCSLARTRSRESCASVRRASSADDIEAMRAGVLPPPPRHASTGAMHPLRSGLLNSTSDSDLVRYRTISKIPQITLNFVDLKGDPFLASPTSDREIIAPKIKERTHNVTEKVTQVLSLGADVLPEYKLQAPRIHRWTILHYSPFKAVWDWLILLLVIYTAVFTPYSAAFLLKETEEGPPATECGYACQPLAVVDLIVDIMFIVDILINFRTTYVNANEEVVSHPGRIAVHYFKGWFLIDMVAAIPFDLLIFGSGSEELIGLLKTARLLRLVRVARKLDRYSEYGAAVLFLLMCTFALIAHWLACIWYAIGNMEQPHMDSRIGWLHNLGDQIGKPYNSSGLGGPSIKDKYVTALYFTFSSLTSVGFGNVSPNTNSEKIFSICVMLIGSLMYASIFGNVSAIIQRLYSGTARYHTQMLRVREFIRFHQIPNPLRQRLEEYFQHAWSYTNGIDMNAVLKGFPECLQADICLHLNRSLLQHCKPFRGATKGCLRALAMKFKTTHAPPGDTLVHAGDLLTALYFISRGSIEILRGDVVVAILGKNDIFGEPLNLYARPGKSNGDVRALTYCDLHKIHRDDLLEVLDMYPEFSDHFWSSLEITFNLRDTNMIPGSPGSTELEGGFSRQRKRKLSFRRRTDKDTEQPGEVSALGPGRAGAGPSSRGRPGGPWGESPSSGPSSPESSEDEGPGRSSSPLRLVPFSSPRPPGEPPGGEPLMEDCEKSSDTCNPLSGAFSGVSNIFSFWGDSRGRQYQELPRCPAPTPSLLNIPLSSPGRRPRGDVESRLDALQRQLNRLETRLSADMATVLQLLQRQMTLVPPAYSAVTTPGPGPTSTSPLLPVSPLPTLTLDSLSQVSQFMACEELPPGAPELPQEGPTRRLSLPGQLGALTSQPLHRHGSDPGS
Assay: Displacement of [35S]MK499 from human ERG expressed in HEK293 cells
Details: read-out: IP
Each entry below carries its recorded log10 of IC50.
Readout type: log10 of IC50 (log10 of the value in µM)

• N#Cc1cccc2c(=O)c3cc(-c4ccccc4)cnc3ccc12 = -0.05
• N#Cc1cccc2c1C=Cc1ncc(N3CCCCC3)cc1C2O (racemic) = 1.00
• N#Cc1cccc2c1C=Cc1ncc(N3CCCCC3)cc1C2O (single isomer, unassigned; (-)) = 1.30
• N#Cc1cccc2c1C=Cc1ncc(-c3ccc(F)cc3)cc1C2O (stereo unspecified) = -0.29
• N#Cc1cccc2c1C=Cc1ncc(-c3cccc(F)c3)cc1C2O (stereo unspecified) = 0.70
• CN1CCN(c2cnc3c(c2)C(O)c2cccc(C#N)c2C=C3)CC1 (stereo unspecified) = 1.62
• CC(=O)OC1c2cc(-c3ccccc3)cnc2C=Cc2c(C#N)cccc21 (stereo unspecified) = -0.19
• N#Cc1cccc2c1C=Cc1ncc(N3CCOCC3)cc1C2O (stereo unspecified) = 1.30
• N#Cc1cccc2c1C=Cc1ncc(-c3ccccc3F)cc1C2O (stereo unspecified) = 0.65
• Cc1ccc(-c2cnc3c(c2)C(O)c2cccc(C#N)c2C=C3)cc1 (stereo unspecified) = 0.23
• COc1ccccc1-c1cnc2c(c1)C(O)c1cccc(C#N)c1C=C2 (stereo unspecified) = 0.74
• N#Cc1cccc2c1C=Cc1ncc(-c3ccccc3)cc1C2O (racemic) = 0.71
• CC1CCN(c2cnc3c(c2)C(O)c2cccc(C#N)c2C=C3)CC1 (stereo unspecified) = 0.72
• Cc1cccc(-c2cnc3c(c2)C(O)c2cccc(C#N)c2C=C3)c1 (stereo unspecified) = 0.04
• N#Cc1cccc2c1CCc1ncc(-c3ccccc3)cc1C2 = -0.81
• COc1cccc(-c2cnc3c(c2)C(O)c2cccc(C#N)c2C=C3)c1 (stereo unspecified) = 0.18
• N#Cc1cccc2c1C=Cc1ncc(N3CCCCCC3)cc1C2O (stereo unspecified) = 0.48
• N#Cc1cccc2c1C=Cc1ncc(N3CCCCC3)cc1C2O (single isomer, unassigned; (+)) = 1.30
• N#Cc1cccc2c1C=Cc1ncc(-c3ccccc3)cc1C2 = -1.19
• Cc1ccccc1-c1cnc2c(c1)C(O)c1cccc(C#N)c1C=C2 (stereo unspecified) = 0.13
• COc1ccc(-c2cnc3c(c2)C(O)c2cccc(C#N)c2C=C3)cc1 (stereo unspecified) = 0.21
• N#Cc1cccc2c1CCc1ncc(-c3ccccc3)cc1C2O (stereo unspecified) = 0.55
• N#Cc1cccc2c1C=Cc1ncc(N3CCCC3)cc1C2O (stereo unspecified) = 1.19
• COC1c2cc(-c3ccccc3)cnc2C=Cc2c(C#N)cccc21 (stereo unspecified) = -0.18
• N#Cc1cccc2c1C=Cc1ncc(-c3ccccc3)cc1C2O (single isomer, unassigned; (-)) = -0.23
• N#Cc1cccc2c1C=Cc1ncc(-c3ccccc3)cc1C2O (single isomer, unassigned; (+)) = 1.00
